Value source: patent US4515941A

system: Proteus vulgaris OX19; assay: MIC, Proteus vulgaris OX19; type: cell-based; conditions: Proteus vulgaris OX19; read-out: MIC
Endpoint Name: log10(MIC) (log10 of the value in µg/mL)
Form field - Quantity: MIC; Unit: µg/mL; Scale: log10

Molecule	log10(MIC)
CCC1OC(=O)CC(O)C(C)C(OC2OC(C)C(O)C(N(C)C)C2O)C(CC=O)CC(C)C(=O)C=CC(C)=CC1COc1ccc(Cl)cc1 (stereo not drawn)	1.10
CCC1OC(=O)CC(O)C(C)C(OC2OC(C)C(O)C(N(C)C)C2O)C(CC=O)CC(C)C(=O)C=CC(C)=CC1CSCCc1ccccc1 (stereo not drawn)	1.10
CCC1OC(=O)CC(O)C(C)C(OC2OC(C)C(O)C(N(C)C)C2O)C(CC=O)CC(C)C(=O)C=CC(C)=CC1CSc1ccccc1 (stereo not drawn)	1.10
CCC1OC(=O)CC(O)C(C)C(OC2OC(C)C(O)C(N(C)C)C2O)C(CC=O)CC(C)C(=O)C=CC(C)=CC1COc1ccc(C)cc1 (stereo not drawn)	1.40
CCC1OC(=O)CC(O)C(C)C(OC2OC(C)C(O)C(N(C)C)C2O)C(CC=O)CC(C)C(=O)C=CC(C)=CC1COc1cccc(N(CC)CC)c1 (stereo not drawn)	1.40

Batch request: log10(MIC) per item, same order as input.
1. CCC1OC(=O)CC(O)C(C)C(OC2OC(C)C(O)C(N(C)C)C2O)C(CC=O)CC(C)C(=O)C=CC(C)=CC1COCc1ccccc1 (stereo not drawn)
2. CCC1OC(=O)CC(O)C(C)C(OC2OC(C)C(O)C(N(C)C)C2O)C(CC=O)CC(C)C(=O)C=CC(C)=CC1CSCc1ccccc1 (stereo not drawn)
3. CCC1OC(=O)CC(O)C(C)C(OC2OC(C)C(O)C(N(C)C)C2O)C(CC=O)CC(C)C(=O)C=CC(C)=CC1CSC(C)c1ccccc1 (stereo not drawn)
4. CCC1OC(=O)CC(O)C(C)C(OC2OC(C)C(O)C(N(C)C)C2O)C(CC=O)CC(C)C(=O)C=CC(C)=CC1COc1ccc(Cl)cc1Cl (stereo not drawn)
5. CCC1OC(=O)CC(O)C(C)C(OC2OC(C)C(O)C(N(C)C)C2O)C(CC=O)CC(C)C(=O)C=CC(C)=CC1COc1ccc(Br)cc1 (stereo not drawn)
6. CCC1OC(=O)CC(O)C(C)C(OC2OC(C)C(O)C(N(C)C)C2O)C(CC=O)CC(C)C(=O)C=CC(C)=CC1COc1cccc([N+](=O)[O-])c1 (stereo not drawn)
7. CCc1ccc(OCC2C=C(C)C=CC(=O)C(C)CC(CC=O)C(OC3OC(C)C(O)C(N(C)C)C3O)C(C)C(O)CC(=O)OC2CC)cc1 (stereo not drawn)
8. CCC1OC(=O)CC(O)C(C)C(OC2OC(C)C(O)C(N(C)C)C2O)C(CC=O)CC(C)C(=O)C=CC(C)=CC1COc1ccc(OC)cc1 (stereo not drawn)

RESULT:
0.49
0.80
1.10
1.40
1.40
1.40
2.00
1.70

QUERY: I have this molecule here, CCC1OC(=O)CC(O)C(C)C(OC2OC(C)C(O)C(N(C)C)C2O)C(CC=O)CC(C)C(=O)C=CC(C)=CC1COc1ccccc1 (stereo not drawn) , and I need its recorded log10(MIC).
RESULT: 1.10

---

test system: Salmonella typhosa H901; experiment: MIC, Salmonella typhosa H901; type: cell-based; settings: Salmonella enterica, TYPHOSA
Exercise: for every item that follows, state its recorded MIC.
Answers are plain numbers, in µg/mL.

Molecule	Result Unit	Value
CC[C@H]1OC(=O)[C@H](C)[C@@H](O[C@H]2C[C@@](C)(OC)[C@@H](O)[C@H](C)O2)[C@H](C)[C@@H](O[C@@H]2O[C@H](C)C[C@H](N(C)C)[C@H]2O)[C@](C)(O)C[C@@H](C)C(=O)[C@H](C)[C@@H](O)[C@]1(C)O [EM, erythromycin, reference compound]	µg/mL	100

Please state MIC for every molecule in the list that follows.
1. CCC1OC(=O)CC(O)C(C)C(OC2OC(C)C(O)C(N(C)C)C2O)C(CC=O)CC(C)C(=O)C=CC(C)=CC1COCc1ccccc1 (centres unmarked)
2. CCC1OC(=O)CC(O)C(C)C(OC2OC(C)C(O)C(N(C)C)C2O)C(CC=O)CC(C)C(=O)C=CC(C)=CC1COc1ccccc1 (centres unmarked)

RESULT:
1. 100
2. 100

Working through the 3 molecules below one at a time, give MIC for each.
1. CCC1OC(=O)CC(O)C(C)C(OC2OC(C)C(O)C(N(C)C)C2O)C(CC=O)CC(C)C(=O)C=CC(C)=CC1CSc1ccccc1 (centres unmarked)
2. CCC1OC(=O)CC(O)C(C)C(OC2OC(C)C(O)C(N(C)C)C2O)C(CC=O)CC(C)C(=O)C=CC(C)=CC1CSC(C)c1ccccc1 (centres unmarked)
3. CCC1OC(=O)CC(O)C(C)C(OC2OC(C)C(O)C(N(C)C)C2O)C(CC=O)CC(C)C(=O)C=CC(C)=CC1CSCc1ccccc1 (centres unmarked)

RESULT:
1. 50
2. 100
3. 50

---

// endpoint MIC / system Staphylococcus aureus MS353 C36
Answers are plain numbers, in µg/mL.

Compound	Value
CC[C@H]1OC(=O)[C@H](C)[C@@H](O[C@H]2C[C@@](C)(OC)[C@@H](O)[C@H](C)O2)[C@H](C)[C@@H](O[C@@H]2O[C@H](C)C[C@H](N(C)C)[C@H]2O)[C@](C)(O)C[C@@H](C)C(=O)[C@H](C)[C@@H](O)[C@]1(C)O [EM, erythromycin, reference compound]	0.4

Look up MIC for the entries below, preserving their order.
1. CCC1OC(=O)CC(O)C(C)C(OC2OC(C)C(O)C(N(C)C)C2O)C(CC=O)CC(C)C(=O)C=CC(C)=CC1COc1ccc(OC)cc1 (centres unmarked)
2. CC[C@H]1OC(=O)C[C@@H](O)[C@H](C)[C@@H](O[C@@H]2O[C@H](C)[C@@H](O[C@H]3C[C@@](C)(O)[C@@H](O)[C@H](C)O3)[C@H](N(C)C)[C@H]2O)[C@@H](CC=O)C[C@@H](C)C(=O)/C=C/C(C)=C/[C@@H]1CO[C@@H]1O[C@H](C)[C@@H](O)[C@@H](OC)[C@H]1OC [TS, tylosin, reference compound]
3. CCC1OC(=O)CC(O)C(C)C(OC2OC(C)C(O)C(N(C)C)C2O)C(CC=O)CC(C)C(=O)C=CC(C)=CC1COc1ccc(C)cc1 (centres unmarked)
4. CCc1ccc(OCC2C=C(C)C=CC(=O)C(C)CC(CC=O)C(OC3OC(C)C(O)C(N(C)C)C3O)C(C)C(O)CC(=O)OC2CC)cc1 (centres unmarked)
5. CCC1OC(=O)CC(O)C(C)C(OC2OC(C)C(O)C(N(C)C)C2O)C(CC=O)CC(C)C(=O)C=CC(C)=CC1COc1ccc(Br)cc1 (centres unmarked)

RESULT:
1. 0.1
2. 0.4
3. 0.2
4. 0.4
5. 0.2

Count: 3. Required value per item: MIC.
1. CCC1OC(=O)CC(O)C(C)C(OC2OC(C)C(O)C(N(C)C)C2O)C(CC=O)CC(C)C(=O)C=CC(C)=CC1COc1ccc(Cl)cc1Cl (centres unmarked)
2. CCC1OC(=O)CC(O)C(C)C(OC2OC(C)C(O)C(N(C)C)C2O)C(CC=O)CC(C)C(=O)C=CC(C)=CC1COc1cccc(N(CC)CC)c1 (centres unmarked)
3. CCC1OC(=O)CC(O)C(C)C(OC2OC(C)C(O)C(N(C)C)C2O)C(CC=O)CC(C)C(=O)C=CC(C)=CC1COc1cccc([N+](=O)[O-])c1 (centres unmarked)

RESULT:
0.1
0.4
0.1

---

Assignment: determine reported MIC for the given compounds.
test system: Staphylococcus aureus MS353; test: MIC, Staphylococcus aureus MS353; format: cell-based; details: Staphylococcus aureus MS353; read-out: MIC
Numbers only, in µg/mL.

Use the examples below as a reference point.
Compound	Endpoint Name	Value
CCC1OC(=O)CC(O)C(C)C(OC2OC(C)C(O)C(N(C)C)C2O)C(CC=O)CC(C)C(=O)C=CC(C)=CC1COc1ccc(OC)cc1 (stereo not drawn)	MIC	0.2
CCC1OC(=O)CC(O)C(C)C(OC2OC(C)C(O)C(N(C)C)C2O)C(CC=O)CC(C)C(=O)C=CC(C)=CC1COc1ccc(Br)cc1 (stereo not drawn)	MIC	0.2
CCC1OC(=O)CC(O)C(C)C(OC2OC(C)C(O)C(N(C)C)C2O)C(CC=O)CC(C)C(=O)C=CC(C)=CC1COc1ccc(Cl)cc1Cl (stereo not drawn)	MIC	0.2
CCC1OC(=O)CC(O)C(C)C(OC2OC(C)C(O)C(N(C)C)C2O)C(CC=O)CC(C)C(=O)C=CC(C)=CC1COC(c1ccccc1)(c1ccccc1)c1ccccc1 (stereo not drawn) [OC(C6 H5)3]	MIC	1.6
CCC1OC(=O)CC(O)C(C)C(OC2OC(C)C(O)C(N(C)C)C2O)C(CC=O)CC(C)C(=O)C=CC(C)=CC1CSc1ccccc1 (stereo not drawn) [SC6 H5]	MIC	0.1

Next item in the queue.
QUERY: Consider the compound shown here: CCc1ccc(OCC2C=C(C)C=CC(=O)C(C)CC(CC=O)C(OC3OC(C)C(O)C(N(C)C)C3O)C(C)C(O)CC(=O)OC2CC)cc1 (stereo not drawn) What is its recorded MIC?
RESULT: 0.4
